# Protocol summary: PK protocol, intravenous administration
# Assay type: in vivo, male Sprague Dawley rats
# Measurement conditions: male, Sprague Dawley, rat, plasma, dose (mg/kg)
Counter-ions that a name gives are not always drawn.
Experimental readout: half-life (min)

>>> measured_value("Cn1nc(S(=O)(=O)NC(=O)Nc2c3c(cc4c2CCC4)CCC3)cc1CN1CCC1 [Example 86, Sodium Salt]")
192
>>> measured_value("CCC(c1cc(S(=O)(=O)NC(=O)Nc2c3c(cc4c2CCC4)CCC3)nn1C)N(C)C (single isomer, unassigned; enantiomer 2)")
144
>>> measured_value("CN(C)CCn1nc(S(=O)(=O)NC(=O)Nc2c3c(cc4c2CCC4)CCC3)cc1C(C)(C)O")
96
>>> measured_value("CCN(C)Cc1cc(S(=O)(=O)NC(=O)Nc2c(C(C)C)cc(F)cc2C(C)C)nn1C [Example 89, sodium Salt]")
84
>>> measured_value("CCn1nc(S(=O)(=O)NC(=O)Nc2c3c(cc4c2CCC4)CCC3)cc1CN1CCC1")
132
>>> measured_value("Cn1nc(S(=O)(=O)[N-]C(=O)Nc2c3c(cc4c2CCC4)CCC3)cc1C[N+](C)(C)C")
72
>>> measured_value("CC(c1cc(S(=O)(=O)NC(=O)Nc2c3c(cc4c2CCC4)CCC3)nn1C)N(C)C (stereo not drawn)")
210
>>> measured_value("CC(C)N(C)Cc1cc(S(=O)(=O)NC(=O)Nc2c3c(cc4c2CCC4)CCC3)nn1C")
258
>>> measured_value("CCC(c1cc(S(=O)(=O)NC(=O)Nc2c3c(cc4c2CCC4)CCC3)nn1C1CC1)N(C)C (stereo not drawn)")
60
>>> measured_value("CC(c1cc(S(=O)(=O)NC(=O)Nc2c3c(cc4c2CCC4)CCC3)nn1C)N1CCC1 (stereo not drawn) [Example 76]")
192
>>> measured_value("CC(c1cc(S(=O)(=O)NC(=O)Nc2c3c(cc4c2CCC4)CCC3)nn1C)N1CCC1 (single isomer, unassigned; enantiomer 2) [Example 27]")
66
>>> measured_value("CC(c1cc(S(=O)(=O)NC(=O)Nc2c3c(cc4c2CCC4)CCC3)nn1C(C)C)N(C)C (stereo not drawn)")
210
>>> measured_value("CCN(C)Cc1cc(S(=O)(=O)NC(=O)Nc2c3c(cc4c2CCC4)CCC3)nn1C")
60
>>> measured_value("CN(C)Cc1cc(S(=O)(=O)NC(=O)Nc2c3c(cc4c2CCC4)CCC3)nn1C1CC1")
72
>>> measured_value("O=C(Nc1c2c(cc3c1CCC3)CCC2)NS(=O)(=O)c1cc(CN2CCC2)n(C2CC2)n1")
168

* * *

Catalogue of compounds with associated pIC50
# System under test: NLRP3 (Homo sapiens)
# Sequence (Q96P20 whole entry): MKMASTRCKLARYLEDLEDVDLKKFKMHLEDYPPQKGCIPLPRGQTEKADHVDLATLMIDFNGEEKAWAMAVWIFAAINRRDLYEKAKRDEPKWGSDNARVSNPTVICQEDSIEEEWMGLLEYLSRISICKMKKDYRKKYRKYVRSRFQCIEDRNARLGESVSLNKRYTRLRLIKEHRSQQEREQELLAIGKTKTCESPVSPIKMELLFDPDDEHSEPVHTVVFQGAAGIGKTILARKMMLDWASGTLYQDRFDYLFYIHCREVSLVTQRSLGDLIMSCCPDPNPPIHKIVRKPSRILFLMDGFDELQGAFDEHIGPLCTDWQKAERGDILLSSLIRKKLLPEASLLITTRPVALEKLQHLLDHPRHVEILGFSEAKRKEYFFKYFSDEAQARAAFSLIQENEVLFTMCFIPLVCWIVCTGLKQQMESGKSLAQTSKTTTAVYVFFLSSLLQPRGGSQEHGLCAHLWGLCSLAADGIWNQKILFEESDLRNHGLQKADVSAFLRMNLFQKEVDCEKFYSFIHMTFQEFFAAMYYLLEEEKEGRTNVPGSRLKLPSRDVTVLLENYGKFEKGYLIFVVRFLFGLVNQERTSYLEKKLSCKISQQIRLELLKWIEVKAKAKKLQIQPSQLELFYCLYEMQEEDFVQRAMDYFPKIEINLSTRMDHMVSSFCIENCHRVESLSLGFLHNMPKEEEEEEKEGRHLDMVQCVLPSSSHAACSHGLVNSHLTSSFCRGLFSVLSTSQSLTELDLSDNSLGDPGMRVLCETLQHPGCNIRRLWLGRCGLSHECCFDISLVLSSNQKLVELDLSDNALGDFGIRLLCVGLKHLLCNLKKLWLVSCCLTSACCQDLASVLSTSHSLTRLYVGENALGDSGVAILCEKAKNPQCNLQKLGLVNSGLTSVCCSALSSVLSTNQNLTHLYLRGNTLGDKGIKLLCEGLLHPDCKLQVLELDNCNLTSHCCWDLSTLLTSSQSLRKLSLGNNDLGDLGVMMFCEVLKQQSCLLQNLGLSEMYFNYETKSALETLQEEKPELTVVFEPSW
# Protocol summary: THP-1 cells pyroptosis assay (LPS + nigericin, resazurin readout)
# Type: cell-based
# Design: Seed THP-1 cells (25,000 cells/well) containing 1.0 μg/ml LPS in 40 μl of RPMI medium; host or cells: THP-1 cells
# Measurement conditions: NLRP3 inhibitory activity, 1.0 μg/ml LPS, 5 μM nigericin
pIC50: −log10 of the molar value. Structures can show the parent of a compound that is named as a salt.
Experimental readout: pIC50

>>> measured_value("CNCCn1nc(S(=O)(=O)NC(=O)Nc2c3c(cc4c2CCC4)CCC3)cc1C(=O)O [Example 2]")
"5.00 to 5.59"
>>> measured_value("CC(C)c1cc(F)cc(C(C)C)c1NC(=O)NS(=O)(=O)c1cc(CN(C)C2CN(C)C2)n(C)n1 [Example 9, Sodium Salt]")
"5.00 to 5.59"
>>> measured_value("CN(C)C1(c2cc(S(=O)(=O)NC(=O)Nc3c4c(cc5c3CCC5)CCC4)nn2C)CC1 [Example 58, Sodium Salt]")
"6.80 to 7.40"
>>> measured_value("CNCc1cc(S(=O)(=O)NC(=O)Nc2c3c(cc4c2CCC4)CCC3)nn1C [Example 67]")
"6.80 to 7.40"
>>> measured_value("CCn1nc(S(=O)(=O)NC(=O)Nc2c3c(cc4c2CCC4)CCC3)cc1CN(C)C [Example 52]")
"> 7.40"
>>> measured_value("CC(C)n1nc(S(=O)(=O)NC(=O)Nc2c3c(cc4c2CCC4)CCC3)cc1C1(N(C)C)CC1 [Example 32]")
"6.80 to 7.40"
>>> measured_value("CNCc1cc(S(=O)(=O)NC(=O)Nc2c3c(cc4c2CCC4)CCC3)nn1C(C)C [Example 50]")
"6.80 to 7.40"
>>> measured_value("Cn1nc(S(=O)(=O)[N-]C(=O)Nc2c3c(cc4c2CCC4)CCC3)cc1C[N+](C)(C)C [Example 44]")
"5.59 to 6.19"
>>> measured_value("CCN(CC)Cc1cc(S(=O)(=O)NC(=O)Nc2c(C(C)C)cc(F)cc2C(C)C)nn1C [Example 83, sodium Salt]")
"5.59 to 6.19"
>>> measured_value("CCN(C)Cc1cc(S(=O)(=O)NC(=O)Nc2c(C(C)C)cc(F)cc2C(C)C)nn1C [Example 89, sodium Salt]")
"6.19 to 6.80"
>>> measured_value("CC(C)c1cc(F)cc(-c2ccnc(C#N)c2)c1NC(=O)NS(=O)(=O)c1cc(CN(C)C)n(C)n1 [Example 36]")
"6.80 to 7.40"
>>> measured_value("CC(C)n1nc(S(=O)(=O)NC(=O)Nc2c3c(cc4c2CCC4)CCC3)cc1CN(C)CCF [Example 57, Sodium Salt]")
"> 7.40"
>>> measured_value("CCn1nc(S(=O)(=O)NC(=O)Nc2c(-c3cccnc3)cc(F)c3c2CCC3)cc1CN(C)C [Example 20]")
"> 7.40"
>>> measured_value("CC(C)c1cc(Cl)cc(C(C)C)c1NC(=O)NS(=O)(=O)c1cc(CN(C)C)n(C(C)C)n1 [Example 55]")
"6.80 to 7.40"
>>> measured_value("CC(C)c1cc(F)cc(C(C)C)c1NC(=O)NS(=O)(=O)c1cc(CN(C)CCO)n(C)n1 [Example 116]")
"6.19 to 6.80"
